Biological target: VEGF (R&D systems, Minneapolis, Minn.) (UniProt P15692-4 27-191, limits assumed)
Sequence (P15692 other isoform, or with tags, fused parts or gaps limits assumed): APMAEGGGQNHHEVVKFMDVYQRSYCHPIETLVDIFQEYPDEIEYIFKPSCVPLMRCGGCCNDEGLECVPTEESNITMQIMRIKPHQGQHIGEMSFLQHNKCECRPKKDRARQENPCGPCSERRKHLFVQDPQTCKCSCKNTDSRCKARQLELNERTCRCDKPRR
Assay: BIAcore SPR, mutant/WT
Protocol: RL was kept low to minimize avidity due to the dimeric nature of VEGF. No capture of the antibody was made on the reference surface to serve as a negative control. […] All the binding kinetics data were analyzed at least three separate determinations.

Binder	Δkon (fold)
bevacizumab variant corresponding to SEQ ID NO:82 (antibody, V domains shown) VH: EVQLVESGGGLVQPGGSLRLSCAASGYTFTFYGMNWVRQAPGKGLEWVGWINTYTGEPTYAADFKRRFTFSLDTSKSTAYLQMNSLRAEDTAVYYCAKYPDYDGGSHWYFDVWGQGTLVTVSS VL: DIQMTQSPSSLSASVGDRVTITCSASQDISNYLNWYQQKPGKAPKVLIYFTSSLHSGVPSRFSGSGSGTDFTLTISSLQPEDFATYYCQQYSTVPWTFGQGTKVEIKR	11.6
91 (antibody, human IgG1, V domains shown) VH: EVQLVESGGGLVQPGGSLRLSCAASGYTFTFYGMNWVRQAPGKGLEWVGWINTYTGEPTYAADFKRRFTFSLDTSKSTAYLQMNSLRAEDTAVYYCAKYPHYYGSSHWYFDVWGQGTLVTVSS VL: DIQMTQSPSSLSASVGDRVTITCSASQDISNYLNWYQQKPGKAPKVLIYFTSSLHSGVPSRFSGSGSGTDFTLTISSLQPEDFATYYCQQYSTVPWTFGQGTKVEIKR	1.2
89 (antibody, human IgG1, V domains shown) VH: EVQLVESGGGLVQPGGSLRLSCAASGYTFTFYGMNWVRQAPGKGLEWVGWINTYTGEPTYAADFKRRFTFSLDTSKSTAYLQMNSLRAEDTAVYYCAKYPPYDGSSHWYFDVWGQGTLVTVSS VL: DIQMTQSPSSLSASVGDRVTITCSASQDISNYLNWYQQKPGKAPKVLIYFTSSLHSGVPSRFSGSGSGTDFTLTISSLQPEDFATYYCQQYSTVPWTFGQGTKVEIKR	5
